Provenance of the data: PubChem BioAssay AID2823

# system: RanGTP-importin-beta complex (human Ran / KPNB1)
# measurement.notes: disruptors of RanGTP/KPNB1 binding – biochemical, FRET, CFP/YFP, cell-free homogeneous, confirmation (AID 2823)
# applied.conditions: CFP-Ran/YFP-importin-beta FRET ratio
The source made the active and inactive calls. How the calls were made is not given here.
Hi there, use one of these labels in your reply, thanks! YES = active, NO = inactive

Query block: For this compound, state the assay outcome: Cc1c(O)c(CN2CCCCC2)cc2c3c(c(=O)oc12)CCC3
Result block: YES

Query block: Moving on to O=C(c1cc2c(=O)n3ccccc3nc2s1)N1CCN(Cc2ccccc2)CC1
Result block: NO

Query block: Moving on to CCC(C)OC(=O)C[N+](C)(C)CCOC1CC2CCC1(C)C2(C)C (stereo unspecified)
Result block: NO

Query block: Moving on to O=C(Cn1c(=O)c2cccn2c2cccnc21)NCCCN1CCN(c2ccc(F)cc2)CC1
Result block: NO

Query block: Moving on to N=c1oc2ccccc2cc1-c1nc(-c2ccc(Cl)cc2)cs1
Result block: YES

Query block: Moving on to CCc1ccc(C2C(C#N)=C(N)SC(N)=C2C#N)cc1
Result block: NO

Query block: Moving on to CCN1C(=S)SC(=O)C1=C1C=C(C)N(Cc2ccco2)C(C)=C1
Result block: YES

Query block: Moving on to CSc1nsc(/C=C/Nc2ccc(C)cc2)c1C#N
Result block: NO

Query block: Moving on to Cc1nc2ccccc2n1CC(=O)N1CC(=O)Nc2ccccc21
Result block: NO

Query block: Moving on to Nc1ccccc1C(=O)NNc1c2ccccc2nc2ccccc12
Result block: NO

Query block: Moving on to CCOC(=O)c1sc(NC(=O)CSc2nc(C)cc(C)n2)c(C#N)c1C
Result block: NO

Query block: Moving on to CCOC(=O)CNC(=O)C1CCCN(c2ncccn2)C1 (stereo unspecified)
Result block: NO

Query block: Moving on to CCN(CC)S(=O)(=O)c1ccc(OC)c(NC(=O)C2CC(=O)N(c3ccc(C)cc3)C2)c1 (stereo unspecified)
Result block: NO

Query block: Moving on to CCN1CCc2nc(NC(=O)CC(c3ccccc3)c3ccccc3)sc2C1
Result block: YES

Query block: Moving on to CCc1c(C)c2cc(Cl)c(O)c(CN(CC)CC)c2oc1=O
Result block: YES

Query block: Moving on to Cc1ccc2nc(/C(C#N)=C/c3ccc(O)c(O)c3)[nH]c2c1
Result block: NO

Query block: Moving on to COCc1cc(CN2CCN(C)CC2)c(O)c2ncccc12
Result block: NO

Query block: Moving on to CN(C)S(=O)(=O)c1cccc(NC(=O)CNC2CCCCC2)c1
Result block: NO

Query block: Moving on to CC1CCN(c2nc3ccccc3nc2C(C#N)C(=O)OC2CCCCC2)CC1 (stereo unspecified)
Result block: NO

Query block: Moving on to COCCNC(=O)/C(C#N)=C/c1cn(CC(=O)NCc2ccco2)c2ccccc12
Result block: YES

Query block: Moving on to Cc1cc(C(=O)N/N=C2\CC(=O)CC(C)(C)C2)n[nH]1
Result block: NO

Query block: Moving on to c1ccc(Nc2nc3ccccc3n3nnnc23)cc1
Result block: YES

Query block: Moving on to C=CCn1c(C)c(C(C)=O)c(N2CCN(C(c3ccccc3)c3ccccc3)CC2)nc1=S
Result block: NO

Query block: Moving on to Cc1cccc(C)c1N1CCN(S(=O)(=O)c2ccc(F)cc2)CC1
Result block: NO

Query block: Moving on to COC(=O)C1=CN(Cc2ccccc2)C=C(C(=O)OC)C1c1cc(F)ccc1F
Result block: YES

Query block: Moving on to CCS(=O)(=O)c1nc(S(=O)(=O)c2ccc(C)cc2)c(NCc2ccccn2)s1
Result block: NO

Query block: Moving on to N#CC1=C(N)OC2=C(CCc3ccccc32)C1c1ccccc1 (stereo unspecified)
Result block: NO

Query block: Moving on to Oc1nc(Nc2ccccc2)sc1/C=C1\C=Nc2ccccc21
Result block: NO

Query block: Moving on to CCCCCN(C(=O)CN(C)Cc1ccc(OC)cc1OC)c1c(N)n(CCCC)c(=O)[nH]c1=O
Result block: NO

Query block: Moving on to CN(C)CCCN(C(=O)c1ccc(Br)s1)c1nc2cc3c(cc2s1)OCCO3
Result block: NO

Query block: Moving on to CNC(=O)c1c(C)[nH]c(=S)c(C#N)c1-c1ccco1
Result block: NO

Query block: Moving on to Cc1nc2[nH]c(=O)c3c(n2n1)NC1=C(C(=O)CC(C)(C)C1)C3c1ccccc1 (stereo unspecified)
Result block: YES

Query block: Moving on to Cc1ccc(S(=O)(=O)N2CCCN(c3nc4cc(C)ccc4cc3C#N)CC2)cc1
Result block: YES

Query block: Moving on to CCOc1ccc(N=Cc2c(O)n(-c3cccc(C)n3)c(=O)c3ccccc23)cc1
Result block: NO

Query block: Moving on to CC1(C)CC(=O)C=C(NNC(=O)C2CCCCC2)C1
Result block: NO

Query block: Moving on to Nc1nonc1-n1nnc(C(=O)N/N=C/c2ccccc2)c1CSc1ccc(Cl)cc1
Result block: NO

Query block: Moving on to NC(=O)c1ccc(F)cc1
Result block: NO

Query block: Moving on to O=S(=O)(Nc1nc2ccccc2nc1-[n+]1cccc(N=C([O-])c2ccccc2Cl)c1)c1ccccc1
Result block: YES

Query block: Moving on to CCOC(=O)N1CCN(c2cc(=O)n(-c3ccccc3C)c(=O)[nH]2)CC1
Result block: NO

Query block: Moving on to CCN(CC)c1nc(-c2ccccc2)cc(C(F)(F)F)c1C#N
Result block: YES

Query block: Moving on to N#Cc1c(N)n(CCOC(=O)c2ccc(Cl)cc2)c2nc3ccccc3nc12
Result block: YES

====

# system: RanGTP-importin-beta complex (human Ran / KPNB1)
# measurement.notes: disruptors of RanGTP/KPNB1 binding – biochemical, FRET, CFP/YFP, cell-free homogeneous, confirmation (AID 2823)
# applied.conditions: CFP-Ran/YFP-importin-beta FRET ratio
The source made the active and inactive calls. The rule behind the calls is not given here.
measure: IC50

Query block: Bench note: what IC50 did NS(=O)(=O)c1ccc(CCNC(=O)C2CCN(S(=O)(=O)c3ccc(Br)s3)CC2)cc1 show?
Result block: > 50 µM (inactive)

Query block: Moving on to CC/C(=N\NC(=O)c1cc(C2CC2)[nH]n1)c1ccccc1
Result block: > 50 µM (inactive)

Query block: Moving on to C=CCNC(=O)c1cccc(OC2CCN(CC(C)(C)C)CC2)c1
Result block: > 50 µM (inactive)

Query block: Moving on to Cc1ccc(C(=O)NNc2c3ccccc3nc3ccccc23)cc1
Result block: > 50 µM (inactive)

Query block: Moving on to O=C(NC1=NCCS1)c1cc(-c2cccnc2)nc2ccccc12
Result block: > 50 µM (inactive)

Query block: Moving on to CN1CCN(c2ccc(S(=O)(=O)N3CCCCC3)cc2NC(=O)Cc2ccc(Cl)cc2)CC1
Result block: > 50 µM (inactive)

====

# system: RanGTP-importin-beta complex (human Ran / KPNB1)
# measurement.notes: disruptors of RanGTP/KPNB1 binding – biochemical, FRET, CFP/YFP, cell-free homogeneous, confirmation (AID 2823)
# applied.conditions: CFP-Ran/YFP-importin-beta FRET ratio
Active and inactive are the calls of the source. The rule behind the calls is not given here.
Hi there, use one of these labels in your reply, thanks! active, inactive

Query block: For this compound, state the assay outcome: CCN1CCc2nc(NC(=O)c3cc(F)c(F)cc3Cl)sc2C1
Result block: inactive

Query block: Moving on to CC1Cc2cc(/C(O)=C3/C(=O)C(=O)N(Cc4ccncc4)C3c3ccc(N(C)C)cc3)ccc2O1 (configuration not stated)
Result block: inactive

Query block: Moving on to O=C(NNc1c2ccccc2nc2ccccc12)c1ccc(Cl)cc1
Result block: inactive

Query block: Moving on to Cc1ccccc1-n1cnc2cc(NCc3cccs3)ccc21
Result block: inactive

Query block: Moving on to C=CCN1CCc2cccc3c2[C@H]1Cc1ccc(O)c(O)c1-3
Result block: inactive

Query block: Moving on to O=C(NCc1ccccc1C(F)(F)F)C1CC(c2ccc(C(F)(F)F)cc2)=NO1 (configuration not stated)
Result block: inactive

Query block: Moving on to Clc1ccc(-c2nnc(SCc3nc4ccccc4[nH]3)o2)c(Cl)c1
Result block: inactive

Query block: Moving on to COc1ccc(OC(=O)C2CC(=O)N(c3ccc(C)cc3)C2)cc1 (configuration not stated)
Result block: inactive

Query block: Moving on to CCOC(=O)c1c(N)n(CCOC(=O)c2cccs2)c2nc3ccccc3nc12
Result block: active

Query block: Moving on to COCCNc1cc(C)nc2cc(-c3ccc(C)cc3)nn12
Result block: active

Query block: Moving on to OCCN1CCN(c2nc(-c3ccccc3)c3cc(Cl)ccc3n2)CC1
Result block: active

Query block: Moving on to Cc1ccc(N=Cc2cc3c(cc2O)OC(N)=C(C#N)C3c2ccccc2)cc1 (configuration not stated)
Result block: inactive
